Tested on: A549
Assay: Cytotoxicity against human A549 cells assessed as growth inhibition at 50 uM after 48 hrs by sulforhodamine B assay relative to control
Assay type: functional
Conditions: A549, 48 h, read-out: GI
Listed here are compounds together with their documented inhibition of growth at 50 µM.
Write the answer as a number in %, unit excluded.

The cases that follow already have their inhibition of growth at 50 µM on record.
{"CHEM SMILES": "COc1cccc(/C=C/C(=O)/C=C/c2ccc(OCc3cn(CCN4C(=O)C(=O)c5cc(Cl)ccc54)nn3)c(OC)c2)c1", "UNITS OF MEASURE": "%", "inhibition of growth at 50 µM": 13}
{"CHEM SMILES": "COc1ccccc1/C=C/C(=O)/C=C/c1ccc(OCc2cn(CCN3C(=O)C(=O)c4cc(Cl)ccc43)nn2)c(OC)c1", "UNITS OF MEASURE": "%", "inhibition of growth at 50 µM": 11}
{"CHEM SMILES": "COc1ccccc1/C=C/C(=O)/C=C/c1ccc(OCc2cn(CCN3C(=O)C(=O)c4ccccc43)nn2)c(OC)c1", "UNITS OF MEASURE": "%", "inhibition of growth at 50 µM": 11}

Next item in the queue.
Here COc1ccc(/C=C/C(=O)/C=C/c2ccc(OCc3cn(CCN4C(=O)C(=O)c5cc(Cl)ccc54)nn3)c(OC)c2)cc1 was tested on A549, and its inhibition of growth at 50 µM came to 15

* * *

System: THP-1
Experiment: Cytotoxicity against human THP1 cells assessed as growth inhibition at 50 uM after 48 hrs by sulforhodamine B assay relative to control
Assay type: functional
Conditions: THP-1, 48 h, read-out: GI
Listed here are compounds together with their documented inhibition of growth at 50 µM.

The cases that follow already have their inhibition of growth at 50 µM on record.
{"CHEM SMILES": "COc1cccc(/C=C/C(=O)/C=C/c2ccc(OCc3cn(CCN4C(=O)C(=O)c5cc(Cl)ccc54)nn3)c(OC)c2)c1", "VALUE OBSERVED": "55%"}
{"CHEM SMILES": "COc1cc(/C=C/C(=O)/C=C/c2cccc([N+](=O)[O-])c2)ccc1OCc1cn(CCN2C(=O)C(=O)c3ccccc32)nn1", "VALUE OBSERVED": "24%"}
{"CHEM SMILES": "COc1ccc(/C=C/C(=O)/C=C/c2ccc(OCc3cn(CCN4C(=O)C(=O)c5ccccc54)nn3)c(OC)c2)cc1", "VALUE OBSERVED": "75%"}
{"CHEM SMILES": "COc1cc(/C=C/C(=O)/C=C/c2cccc3ccccc23)ccc1OCc1cn(CCN2C(=O)C(=O)c3cc(Cl)ccc32)nn1", "VALUE OBSERVED": "76%"}
{"CHEM SMILES": "COc1ccc(/C=C/C(=O)/C=C/c2ccc(OCc3cn(CCN4C(=O)C(=O)c5ccccc54)nn3)c(OC)c2)cc1OC", "VALUE OBSERVED": "82%"}

Looking up COc1cc(/C=C/C(=O)/C=C/c2ccc(Cl)cc2)ccc1OCc1cn(CCN2C(=O)C(=O)c3cc(Br)ccc32)nn1 , I see its inhibition of growth at 50 µM listed as 25%

Looking up COc1cc(/C=C/C(=O)/C=C/c2ccc(Br)cc2)ccc1OCc1cn(CCN2C(=O)C(=O)c3cc(Br)ccc32)nn1 , I see its inhibition of growth at 50 µM listed as 21%

* * *

Listed here are compounds together with their documented pIC50.
Test system: COLO 205
Experiment: Cytotoxicity against human COLO205 cells assessed as growth inhibition after 48 hrs by sulforhodamine B assay
Assay type: functional, cell-based
Settings: COLO 205, 48 h
Bear in mind: pIC50 is minus log10 of a mol/L concentration; give just that figure.

{"CHEM SMILES": "COc1ccccc1/C=C/C(=O)/C=C/c1ccc(OCc2cn(CCN3C(=O)C(=O)c4ccccc43)nn2)c(OC)c1", "PARAMETER MEASURED": "pIC50", "VALUE OBSERVED": 5.09}
{"CHEM SMILES": "COc1cccc(/C=C/C(=O)/C=C/c2ccc(OCc3cn(CCN4C(=O)C(=O)c5ccccc54)nn3)c(OC)c2)c1", "PARAMETER MEASURED": "pIC50", "VALUE OBSERVED": 5.13}
{"CHEM SMILES": "COc1ccc(/C=C/C(=O)/C=C/c2ccc(OCc3cn(CCN4C(=O)C(=O)c5cc(Cl)ccc54)nn3)c(OC)c2)cc1OC", "PARAMETER MEASURED": "pIC50", "VALUE OBSERVED": 4.94}
{"CHEM SMILES": "COc1cc(/C=C/C(=O)/C=C/c2cccs2)ccc1OCc1cn(CCN2C(=O)C(=O)c3ccccc32)nn1", "PARAMETER MEASURED": "pIC50", "VALUE OBSERVED": 5.11}
{"CHEM SMILES": "COc1cc(/C=C/C(=O)/C=C/c2cc(OC)c(OC)c(OC)c2)ccc1OCc1cn(CCN2C(=O)C(=O)c3cc(Br)ccc32)nn1", "PARAMETER MEASURED": "pIC50", "VALUE OBSERVED": 5.28}

Looking up COc1ccc(/C=C/C(=O)/C=C/c2ccc(OCc3cn(CCN4C(=O)C(=O)c5cc(Cl)ccc54)nn3)c(OC)c2)cc1 , I see its pIC50 listed as 4.96

Looking up COc1cc(/C=C/C(=O)/C=C/c2ccccc2)ccc1OCc1cn(CCN2C(=O)C(=O)c3ccccc32)nn1 , I see its pIC50 listed as 5.08

Looking up COc1cc(/C=C/C(=O)/C=C/c2cccc3ccccc23)ccc1OCc1cn(CCN2C(=O)C(=O)c3ccccc32)nn1 , I see its pIC50 listed as 5.10

* * *

System: THP-1
Test: Cytotoxicity against human THP1 cells assessed as growth inhibition at 50 uM after 48 hrs by sulforhodamine B assay relative to control
Assay type: functional
Conditions: THP-1, 48 h, read-out: GI
Use inhibition of growth at 50 µM to assign classes; range list: low bin = under 40%, mid bin = from 40% up to 60%, high bin = 60% and over

{"CHEM SMILES": "COc1ccc(/C=C/C(=O)/C=C/c2ccc(OCc3cn(CCN4C(=O)C(=O)c5cc(Cl)ccc54)nn3)c(OC)c2)cc1", "ASSIGNED CLASS": "high bin"}
{"CHEM SMILES": "COc1cc(/C=C/C(=O)/C=C/c2ccc(Cl)cc2)ccc1OCc1cn(CCN2C(=O)C(=O)c3ccccc32)nn1", "ASSIGNED CLASS": "mid bin"}
{"CHEM SMILES": "COc1cc(/C=C/C(=O)/C=C/c2cccs2)ccc1OCc1cn(CCN2C(=O)C(=O)c3cc(Br)ccc32)nn1", "ASSIGNED CLASS": "low bin"}
{"CHEM SMILES": "COc1cc(/C=C/C(=O)/C=C/c2ccco2)ccc1OCc1cn(CCN2C(=O)C(=O)c3cc(Br)ccc32)nn1", "ASSIGNED CLASS": "low bin"}
{"CHEM SMILES": "COc1ccccc1/C=C/C(=O)/C=C/c1ccc(OCc2cn(CCN3C(=O)C(=O)c4cc(Cl)ccc43)nn2)c(OC)c1", "ASSIGNED CLASS": "mid bin"}
{"CHEM SMILES": "COc1cc(/C=C/C(=O)/C=C/c2cccc(Br)c2)ccc1OCc1cn(CCN2C(=O)C(=O)c3cc(Cl)ccc32)nn1", "ASSIGNED CLASS": "low bin"}

API: the following record is the query input.
Query block: Which bin, given its inhibition of growth at 50 µM, does COc1cc(/C=C/C(=O)/C=C/c2cc(OC)c(OC)c(OC)c2)ccc1OCc1cn(CCN2C(=O)C(=O)c3cc(Br)ccc32)nn1 occupy?
Result block: high bin

* * *

Target: Tubulin
Test: Inhibition of tubulin (unknown origin) polymerization after 1 hr by ELISA plate reader analysis
Format: protein-complex assay, Homo sapiens
PARAMETER MEASURED: IC50 (µM)
Write the answer as a number in µM, unit excluded.

The cases that follow already have their IC50 on record.
{"CHEM SMILES": "COc1cc(/C=C/C(=O)/C=C/c2cc(OC)c(OC)c(OC)c2)ccc1OCc1cn(CCN2C(=O)C(=O)c3ccccc32)nn1", "STUDY SYSTEM": "Tubulin", "IC50 (µM)": 2.36}
{"CHEM SMILES": "COc1ccc(/C=C/C(=O)/C=C/c2ccc(OCc3cn(CCN4C(=O)C(=O)c5ccccc54)nn3)c(OC)c2)cc1", "STUDY SYSTEM": "Tubulin", "IC50 (µM)": 5.41}
{"CHEM SMILES": "COc1cc(/C=C/C(=O)/C=C/c2cccc3ccccc23)ccc1OCc1cn(CCN2C(=O)C(=O)c3ccccc32)nn1", "STUDY SYSTEM": "Tubulin", "IC50 (µM)": 7.16}

Next item in the queue.
Looking up COc1ccc(/C=C/C(=O)/C=C/c2ccc(OCc3cn(CCN4C(=O)C(=O)c5ccccc54)nn3)c(OC)c2)cc1OC , I see its IC50 listed as 3.97

meta.source: ChEMBL document CHEMBL3627713
